assay.metric: Kd

So what Kd did Brc1cccc(Nc2ncnc3[nH]ccc23)c1 get with EGFR (Homo sapiens (Human))?
67 nM

Entry COc1ccc(Nc2ncnc3[nH]ccc23)cc1 , system EGFR (Homo sapiens (Human)): what Kd was measured?
3000 nM
